Ref: patent US10633379B2

target: BRD4 (BDII_E352-M457) (Homo sapiens (Human)); assay: TR-FRET bromodomain binding assay, BRD4 BDII; conditions: mean Ki, calculated from IC50, probe Kd and probe concentration
Measured pKi of individual entries
By convention, pKi is the negative base-10 log of a molar concentration.

State the recorded pKi for this entry: Cc1cccc(C(F)F)c1Oc1ccc(C(C)(C)O)cc1-c1cn(C)c(=O)c2[nH]c(C(=O)NC(C)(C)C)cc12 [Example 71]
8.12

Quick one: pKi of CCS(=O)(=O)Nc1ccc(Oc2ccc(F)cc2F)c(-c2cn(C)c(=O)c3[nH]ccc23)c1 [Compound X, reference compound] ?
9.02
